assay: Phase I study CXR1002-001: plasma pharmacokinetics (LC-MS/MS); assay type: in vivo, human; details: human, plasma, oral, 600 mg, Patient 021, 600 mg, person, plasma, 507 hr; read-out: Concentration
measured_attribute: concentration at 507 h (µM)
Your answer is read as µM, so omit the unit and give the number.

Data request: Entry O=C(O)C(F)(F)C(F)(F)C(F)(F)C(F)(F)C(F)(F)C(F)(F)C(F)(F)F [CXR1002] has what concentration at 507 h?
Data returned: 654

* * *

assay: Phase I study CXR1002-001: plasma pharmacokinetics (LC-MS/MS); type: in vivo, human; conditions: human, plasma, oral, 50 mg, Patient 001 Dose 50 mg; 6 hr
measured_attribute: concentration at 6 h

Data request: // returns reported concentration at 6 h for input O=C(O)C(F)(F)C(F)(F)C(F)(F)C(F)(F)C(F)(F)C(F)(F)C(F)(F)F
Data returned: 14.7 µM

* * *

test: Phase I study CXR1002-001: plasma pharmacokinetics (LC-MS/MS); format: in vivo, human; conditions: human, plasma, po, 1200 mg, Patient 038, 1200 mg weekly oral dose, Time 674 hr; read-out: Concentration (plasma level)
measured_attribute: concentration at 674 h (µM)
Write the value in µM as a bare number.

Data request: Value lookup for concentration at 674 h; key = O=C(O)C(F)(F)C(F)(F)C(F)(F)C(F)(F)C(F)(F)C(F)(F)C(F)(F)F
Data returned: 932

* * *

test: Phase I study CXR1002-001: plasma pharmacokinetics (LC-MS/MS); type: in vivo, human; settings: human, plasma, oral, 200 mg, Patient 009 Dose 200 mg; 840 hr (Day 36); read-out: Concentration
measured_attribute: concentration at 840 h (µM)
Write the answer as a number in µM, unit excluded.

Data request: For the compound O=C(O)C(F)(F)C(F)(F)C(F)(F)C(F)(F)C(F)(F)C(F)(F)C(F)(F)F [CXR1002] , what concentration at 840 h is on record?
Data returned: 399

* * *

test: Phase I study CXR1002-001: plasma pharmacokinetics (LC-MS/MS); format: in vivo, human; details: human, plasma, oral, 950 mg, Patient 031, 950 mg, person, plasma, 508 hr; read-out: Concentration
measured_attribute: concentration at 508 h

Data request: concentration at 508 h for O=C(O)C(F)(F)C(F)(F)C(F)(F)C(F)(F)C(F)(F)C(F)(F)C(F)(F)F [CXR1002] ?
Data returned: 998 µM

* * *

test: Phase I study CXR1002-001: plasma pharmacokinetics (LC-MS/MS); format: in vivo, human; conditions: human, plasma, oral, 450 mg, Patient 015 Dose 450 mg; 339 hr; read-out: Concentration
measured_attribute: concentration at 339 h (µM)
Hi! Could you send only the number? It should be in µM, unit omitted.

Data request: Recorded concentration at 339 h of O=C(O)C(F)(F)C(F)(F)C(F)(F)C(F)(F)C(F)(F)C(F)(F)C(F)(F)F , please.
Data returned: 393

* * *

assay: Phase I study CXR1002-001: plasma pharmacokinetics (LC-MS/MS); format: in vivo, human; conditions: human, plasma, oral, 600 mg, Patient 021, 600 mg, person, plasma, 696 hr (Day 30); read-out: Concentration
measured_attribute: concentration at 696 h (µM)
Use µM as the unit, but write only the number.

Data request: Consider the compound O=C(O)C(F)(F)C(F)(F)C(F)(F)C(F)(F)C(F)(F)C(F)(F)C(F)(F)F and give its measured concentration at 696 h.
Data returned: 799

* * *

experiment: Phase I study CXR1002-001: plasma pharmacokinetics (LC-MS/MS); format: in vivo, human; settings: human, plasma, oral, 1000 mg, Patient 040, 1000 mg, person, plasma, 171 hr; read-out: Concentration
measured_attribute: concentration at 171 h (µM)
Write the value in µM as a bare number.

Data request: For the molecule O=C(O)C(F)(F)C(F)(F)C(F)(F)C(F)(F)C(F)(F)C(F)(F)C(F)(F)F [CXR1002] , what concentration at 171 h is on record?
Data returned: 343

* * *

test: Phase I study CXR1002-001: plasma pharmacokinetics (LC-MS/MS); format: in vivo, human; conditions: human, plasma, oral, 1200 mg, Patient 034, 1200 mg, person, plasma, 672 hr (Day 29); read-out: Concentration
measured_attribute: concentration at 672 hr (µM)
Dear colleague, please return just the value in µM, with no unit written.

Data request: Reported concentration at 672 hr, molecule O=C(O)C(F)(F)C(F)(F)C(F)(F)C(F)(F)C(F)(F)C(F)(F)C(F)(F)F : ____
Data returned: 1080

* * *

assay: Phase I study CXR1002-001: plasma pharmacokinetics (LC-MS/MS); type: in vivo, human; details: human, plasma, oral, 750 mg, Patient 028, 750 mg, person, plasma, 696 hr (Day 30); read-out: Concentration
measured_attribute: concentration at 696 h (µM)
The reply should contain only the number, in µM.

Data request: Recorded concentration at 696 h for O=C(O)C(F)(F)C(F)(F)C(F)(F)C(F)(F)C(F)(F)C(F)(F)C(F)(F)F , please?
Data returned: 758

* * *

assay: Phase I study CXR1002-001: plasma pharmacokinetics (LC-MS/MS); format: in vivo, human; conditions: human, plasma, po, 1200 mg, Patient 038, 1200 mg weekly oral dose, Time 339 hr; read-out: Concentration (plasma level)
measured_attribute: concentration at 339 h

Data request: Please look up its concentration at 339 h: O=C(O)C(F)(F)C(F)(F)C(F)(F)C(F)(F)C(F)(F)C(F)(F)C(F)(F)F
Data returned: 682 µM

* * *

test: Phase I study CXR1002-001: plasma pharmacokinetics (LC-MS/MS); type: in vivo, human; settings: human, plasma, oral, 450 mg, Patient 015 Dose 450 mg; 360 hr (Day 16); read-out: Concentration
measured_attribute: concentration at 360 h

Data request: Returns the measured concentration at 360 h for the input molecule. Input: O=C(O)C(F)(F)C(F)(F)C(F)(F)C(F)(F)C(F)(F)C(F)(F)C(F)(F)F [CXR1002]
Data returned: 412 µM

* * *

test: Phase I study CXR1002-001: plasma pharmacokinetics (LC-MS/MS); assay type: in vivo, human; conditions: human, plasma, oral, 750 mg, Patient 028, 750 mg, person, plasma, 674 hr; read-out: Concentration
measured_attribute: concentration at 674 h (µM)
Write the number in µM without appending the unit.

Data request: // concentration at 674 h lookup, key: O=C(O)C(F)(F)C(F)(F)C(F)(F)C(F)(F)C(F)(F)C(F)(F)C(F)(F)F [CXR1002]
Data returned: 710

* * *

assay: Phase I study CXR1002-001: plasma pharmacokinetics (LC-MS/MS); assay type: in vivo, human; conditions: human, plasma, po, 1200 mg, Patient 036, 1200 mg weekly oral dose, Time 507 hr; read-out: Concentration (plasma level)
measured_attribute: concentration at 507 h (µM)
Kindly provide the numeric value in µM only, without the unit symbol.

Data request: Which concentration at 507 h is listed for O=C(O)C(F)(F)C(F)(F)C(F)(F)C(F)(F)C(F)(F)C(F)(F)C(F)(F)F ?
Data returned: 1130

* * *

assay: Phase I study CXR1002-001: plasma pharmacokinetics (LC-MS/MS); type: in vivo, human; conditions: human, plasma, oral, 300 mg, Patient 012 Dose 300 mg; 528 hr (Day 23); read-out: Concentration
measured_attribute: concentration at 528 h (µM)
All answers are understood in µM, so give the number only.

Data request: Returns the measured concentration at 528 h for the input compound. Input: O=C(O)C(F)(F)C(F)(F)C(F)(F)C(F)(F)C(F)(F)C(F)(F)C(F)(F)F
Data returned: 263

* * *

experiment: Phase I study CXR1002-001: plasma pharmacokinetics (LC-MS/MS); type: in vivo, human; conditions: human, plasma, po, 1000 mg, Patient 041, 1000 mg weekly oral dose, Time 842 hr; read-out: Concentration (plasma level)
measured_attribute: concentration at 842 hr (µM)
Quick reminder: number only, in µM, skip the unit.

Data request: Quick check: concentration at 842 hr of O=C(O)C(F)(F)C(F)(F)C(F)(F)C(F)(F)C(F)(F)C(F)(F)C(F)(F)F ?
Data returned: 738

* * *

assay: Phase I study CXR1002-001: plasma pharmacokinetics (LC-MS/MS); assay type: in vivo, human; conditions: human, plasma, oral, 300 mg, Patient 014 Dose 300 mg; 672 hr (Day 29); read-out: Concentration
measured_attribute: concentration at 672 h (µM)
Enter your answer as a number in µM; do not include the unit.

Data request: I am curious: what concentration at 672 h value has been reported for O=C(O)C(F)(F)C(F)(F)C(F)(F)C(F)(F)C(F)(F)C(F)(F)C(F)(F)F ?
Data returned: 355
